Entries and their %Inh values follow.
Tested on: DRAK1
Construct: gene STK17A
Conditions: concentration: 1 μM, replicates: in singlicate; n = 1;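 note: KINOMEscan kinase panel screen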
assay readout: %Inh (%)

>>> data_value("N#CC1(c2cccc(C(=O)Nc3cccc(Oc4ccc5nc(NC(=O)C6CC6)sc5n4)c3)c2)CC1")
2
>>> data_value("Nc1cccc(-c2ccc3c(N)n[nH]c3c2)c1")
95.1
>>> data_value("CCNc1nccc(-c2c(-c3ccc(F)cc3)ncn2C2CCN(C)CC2)n1")
16
>>> data_value("Cc1cccc(Nc2nc(N[C@H]3CCCC[C@H]3N)ncc2C(N)=O)c1.Cl")
4
>>> data_value("CN1CCN(Cc2ccc(NC(=O)Nc3ccc(N(C)c4ccnc(Nc5ccc(CS(C)(=O)=O)cc5)n4)cc3)cc2)CC1.Cl")
10
>>> data_value("O=C(Nc1n[nH]c2nc(-c3ccccc3)ccc12)C1CC1")
0
>>> data_value("COC(=O)Nc1nc2ccc(Oc3ccc(NC(=O)Nc4cc(C(F)(F)F)ccc4F)cc3)cc2[nH]1.Cl")
0
>>> data_value("Nc1ncc(-c2ccc3nccc(-c4ccncc4)c3c2)cc1S(=O)(=O)N1CCCCC1")
0

----------
Test system: PRKCH
Conditions: concentration: 1 μM, replicates: in singlicate; n = 1
This listing pairs compounds with measured %Inh.
assay readout: %Inh (%)

>>> data_value("CS(=O)(=O)c1cccc(CNc2nc(Nc3ccc4c(c3)CCC(=O)N4)ncc2C(F)(F)F)c1")
0
>>> data_value("Cn1cc(-c2ccc3c(c2)CCN3C(=O)Cc2cc(F)cc(F)c2F)c2c(N)ncnc21")
17
>>> data_value("CC(C)c1nc(-c2ccc(F)c(NS(=O)(=O)c3c(F)cccc3F)c2)c(-c2ccnc(Nc3ccc(N4CCOCC4)nc3)n2)s1")
21
>>> data_value("Fc1cc(Cl)ccc1Nc1ccnc2cc(-c3ccc(CN4CCSCC4)o3)ccc12")
21
>>> data_value("Cc1cccc(Nc2nc(N[C@H]3CCCC[C@H]3N)ncc2C(N)=O)c1.Cl")
43
>>> data_value("CN(c1ccc2c(c1)nc(NCc1ccccc1)n2C)c1ccnc(Nc2ccc(CS(C)(=O)=O)cc2)n1.Cl")
0
>>> data_value("COC(=O)Nc1nc2cc(Oc3ccc(NC(=O)Nc4cccc(SC)c4)cc3)ccc2[nH]1.Cl")
4
>>> data_value("O=C1NC(=O)C(c2ccccc2Cl)=C1Nc1cccc(Cl)c1")
0
>>> data_value("Cc1ccccc1CC(=O)N1CCc2cc(-c3cn(C)c4ncnc(N)c34)ccc21")
51
>>> data_value("Cc1ccc(NC(=O)c2ccnc(N3CCCCC3)c2)cc1-c1ccc(C(=O)NCC2CC2)cc1")
0
>>> data_value("COc1cccc(-c2nc(-c3ccccc3)[nH]c2-c2ccncc2)c1")
0
>>> data_value("Cc1ccc(-c2ccc3occ(-c4ccc(S(C)=O)cc4)c3c2)nn1 (stereo not shown)")
0
>>> data_value("CN1CCN(Cc2ccc(NC(=O)Nc3ccc(N(C)c4ccnc(Nc5ccc(CS(C)(=O)=O)cc5)n4)cc3)cc2)CC1.Cl")
0
>>> data_value("Nc1cccc(-c2ccc3c(N)n[nH]c3c2)c1")
61
>>> data_value("CN(c1ccc(NC(=O)Nc2cccc(Cl)c2)cc1)c1ccnc(N)n1.Cl")
0
>>> data_value("Cl.Cl.NCC(NC(=O)c1cc(-c2cccnc2)c(-c2ccnc3[nH]ccc23)s1)c1ccccc1 (stereo not shown)")
88
>>> data_value("CN(c1ccc(NC(=O)N2CCN(CCCN3CCOCC3)CC2)cc1)c1ccnc(Nc2ccc(CS(C)(=O)=O)cc2)n1.Cl")
0
>>> data_value("O=C(Nc1n[nH]c2nc(-c3ccccc3)ccc12)C1CC1")
24
>>> data_value("O=C(O)C(F)(F)F.O=c1[nH]ccc2nc(N[C@@H]3CCNC3)nc(Nc3ccc4c(c3)S(=O)(=O)CC4)c12")
92.9
>>> data_value("N#Cc1cnc2cc(-c3cnc(CNCCN4CCOCC4)s3)ccc2c1Nc1ccc(Oc2ccccc2)cc1")
96.3
>>> data_value("Cc1ccc(NC(=O)c2ccc(Cl)c(Cl)c2)cc1-c1ccc(C(=O)Nc2ccncc2)cc1")
22
>>> data_value("CN(C)CCNS(=O)(=O)c1ccc(-c2ccnc3[nH]ccc23)cc1")
82
>>> data_value("CC(C)(C)c1ccc(C(=O)Nc2cn3cc(-n4ccnc4)ccc3n2)cc1")
0
>>> data_value("Nc1ncnc2scc(-c3ccc(NC(=O)Cc4cc(F)ccc4F)cc3)c12.O=C(O)C(F)(F)F")
34
>>> data_value("Cc1ccc(C)c(NC(=O)Nc2ccc(C)c(-c3ccc(C(=O)Nc4ccncc4)cc3)c2)c1")
10
>>> data_value("CC(=O)Nc1cn2nc(Oc3cccc(NC(=O)c4cccc(C(F)(F)F)c4)c3)ccc2n1")
0
>>> data_value("CN(c1ccc(F)c(NC(=O)c2cccc(OC(C)(C)C#N)c2Cl)c1)c1ccc2nc(NC(=O)C3CC3)sc2n1")
16
>>> data_value("O=C(O)C(F)(F)F.O=c1[nH]ccc2nc(N[C@@H]3CCNC3)nc(Nc3cc(Cl)cc(Cl)c3)c12")
97.4
>>> data_value("Cn1cc(-c2cnc(N)c3c(-c4ccc5c(c4)CCN5C(=O)Cc4ccccc4)csc23)cn1")
0
>>> data_value("COC(=O)Nc1nc2ccc(Oc3ccc(NC(=O)Nc4cc(C(F)(F)F)ccc4F)cc3)cc2[nH]1.Cl")
8
>>> data_value("CN(C)c1ncnc2nc[nH]c12")
0
>>> data_value("Cc1ccc(O)cc1Nc1ccnc2cc(-c3ccc(CN4CCCCC4)o3)ccc12")
0
>>> data_value("Cn1cc(-c2ccc3c(c2)CCN3C(=O)Cc2cc(F)cc(C(F)(F)F)c2)c2c(N)ncnc21")
0
>>> data_value("Nc1ncc(-c2ccc3nccc(-c4ccncc4)c3c2)cc1S(=O)(=O)N1CCCCC1")
36

----------
Tested on: MKNK2
Settings: concentration: 1 μM, replicates: in singlicate; n = 1
The following molecules are shown together with reported %Inh values.
assay readout: %Inh

>>> data_value("Cn1cc(-c2ccc3c(c2)CCN3C(=O)Cc2cc(F)cc(F)c2F)c2c(N)ncnc21 [GSK2634140]")
"1%"
>>> data_value("COc1cccc(C2=C(Nc3cccc(O)c3)C(=O)NC2=O)c1 [SB-390771]")
"5%"
>>> data_value("CCOc1nccc(-c2c(-c3ccc(F)cc3)ncn2C2CCNCC2)n1 [SB-249175]")
"46%"
>>> data_value("CC(C)NCC(Cc1ccccc1)NC(=O)c1cc(Br)c(-c2ccnc3[nH]ccc23)s1.Cl.Cl (centres unmarked) [GSK1383281]")
"90.5%"
>>> data_value("CN(C)c1ncnc2nc[nH]c12 [SKF-31736]")
"0%"
>>> data_value("O=C(Nc1n[nH]c2nc(-c3ccccc3O)ccc12)C1CC1 [SB-711880]")
"38%"
>>> data_value("Cc1ccc(NC(=O)c2ccnc(N3CCCCC3)c2)cc1-c1ccc(C(=O)NCC2CC2)cc1 [GW775610]")
"33%"
>>> data_value("c1ccc(Oc2ccc(Nc3ccnc4cc(-c5ccc(CN6CCCCC6)o5)ccc34)cc2)nc1 [GW567143]")
"37%"
>>> data_value("CC(=O)Nc1cn2nc(Oc3cccc(NC(=O)c4cccc(C(F)(F)F)c4)c3)ccc2n1")
"0%"
>>> data_value("COc1ccc(C)c(Nc2ccnc(Nc3ccc(-c4cnc[nH]4)cc3)n2)c1.Cl [GW784041]")
"0%"
>>> data_value("CC(C)c1nc(-c2ccc(F)c(NS(=O)(=O)c3c(F)cccc3F)c2)c(-c2ccnc(Nc3ccc(N4CCOCC4)nc3)n2)s1 [GSK1804250]")
"11%"
>>> data_value("CNc1nccc(-c2ccc3c(N)n[nH]c3c2)n1 [GSK2206003]")
"97.9%"
>>> data_value("Cc1ccccc1CC(=O)N1CCc2cc(-c3cn(C)c4ncnc(N)c34)ccc21 [GSK2603346]")
"55%"
>>> data_value("Nc1ncc(-c2cn[nH]c2)c2scc(-c3ccc4c(c3)CCN4C(=O)Cc3ccccc3)c12 [GSK2593067]")
"11%"
>>> data_value("Cc1ccc(NC(=O)c2cccc(N3CCCCC3)c2)cc1-c1ccc(C(=O)NCC2CC2)cc1 [GSK1917008]")
"18%"
>>> data_value("Nc1ncnc2scc(-c3ccc(NC(=O)Cc4cc(F)ccc4F)cc3)c12.O=C(O)C(F)(F)F [SB-731254-M]")
"47%"
>>> data_value("COc1cccc(NC(=O)NCCNc2ccnc(Nc3ccc(F)cc3)n2)c1 [GSK1379879]")
"7%"

----------
Test system: MEK5
Construct: gene MAP2K5
Conditions: concentration: 1 μM, replicates: in singlicate; n = 1
Quick rule for you: %Inh at 80% or higher means Criterion met, lower means Criterion not met.

>>> qualitative_label("CC(C)NCC(Cc1ccccc1)NC(=O)c1cc(Br)c(-c2ccnc3[nH]ccc23)s1.Cl.Cl (centres unmarked) [GSK1383281]")
"Criterion not met"
>>> qualitative_label("Cc1ccccc1CC(=O)N1CCc2cc(-c3cn(C)c4ncnc(N)c34)ccc21 [GSK2603346]")
"Criterion met"
>>> qualitative_label("Cc1cc(-c2ccnc(Nc3cccc(C#N)c3)n2)cc(C)c1O [GSK1440913]")
"Criterion not met"
>>> qualitative_label("CCn1c(-c2nonc2N)nc2c(-c3ccccc3)ncc(OCCCN)c21.O=C(O)C(F)(F)F.O=C(O)C(F)(F)F [GSK260205]")
"Criterion met"
>>> qualitative_label("CN(c1ccc2c(c1)nc(NCc1ccccc1)n2C)c1ccnc(Nc2ccc(CS(C)(=O)=O)cc2)n1.Cl [GW811603]")
"Criterion met"
>>> qualitative_label("CC(C)(C)c1ccc(C(=O)Nc2cn3cc(-n4ccnc4)ccc3n2)cc1")
"Criterion met"
>>> qualitative_label("Cc1nn2c(=O)cc(N3CCO[C@H](C)C3)nc2n1Cc1cccc(Cl)c1Cl [GSK2373693]")
"Criterion not met"
